System: SK-BR-3
protocol_details: Cancer cell growth inhibition, 72 h treatment
Type: cell-based
measurement_setup: Homo sapiens, Breast cancer SK-BR-3, Hexosaminidase assay (*)
quantity_measured: EC50 (µM)
Give bare numbers, in µM.

Problem: Look at this molecule and give its reported EC50. `CC(C)C[C@H](NC(=O)[C@@H]1N[C@H](c2ccccc2)[C@@H]([N+](=O)[O-])[C@@H]1c1ccc(F)cc1)B(O)O`
Solution: 6

###

System: SK-BR-3
protocol_details: Cancer cell growth inhibition, 72 h treatment
Assay type: cell-based
measurement_setup: Homo sapiens, Breast cancer SK-BR-3, Alamar Blue
Text: Cell culture-based assays were used to evaluate the ability of compounds of the invention to inhibit cancer cell growth. Cells were obtained from the American Type Culture Collection (ATCC) and the European Collection of Cell Cultures. Cells were thawed in their appropriate media plus supplements (see table below). […] Prior to seeding at defined cell concentration, cells were recovered in medium, centrifuged, taken up in medium and counted. […]
quantity_measured: EC50

[[record]]
compound = "CC(C)C[C@H](NC(=O)[C@@H]1N[C@H](c2ccccc2)[C@@H]([N+](=O)[O-])[C@@H]1c1cccs1)B(O)O"
endpoint_value = "440 nM"


Please give EC50 for each item listed below.
1. CC(C)C[C@H](NC(=O)[C@@H]1N[C@H](c2ccc3ccccc3c2)[C@@H]([N+](=O)[O-])[C@@H]1c1ccccc1)B(O)O
2. CC(C)C[C@H](NC(=O)[C@@H]1CCCN1)B(O)O [MG-319, reference compound]
3. CC(C)C[C@H](NC(=O)[C@@H]1N[C@H](c2ccccc2)[C@@H]([N+](=O)[O-])[C@@H]1c1ccccc1)B(O)O
4. CC(C)C[C@H](NC(=O)[C@H]1N[C@@H](c2ccccc2)[C@@H]([N+](=O)[O-])[C@@H]1c1ccccc1)B(O)O
5. CC(C)C[C@H](NC(=O)[C@@H]1N[C@H](c2ccccc2)[C@@H]([N+](=O)[O-])[C@@H]1c1ccco1)B(O)O

Solution:
["570 nM", "6200 nM", "1200 nM", "760 nM", "110 nM"]

###

Test system: HT-29
protocol_details: Cancer cell growth inhibition, 72 h treatment
Type: cell-based
measurement_setup: Homo sapiens, Colon cancer HT-29, Alamar Blue
Criterion: EC50 strictly less than 4 µM. Met: Yes. Not met: No.

Problem: # check: EC50 < 4 µM for CC(C)C[C@H](NC(=O)[C@H]1N[C@@H](c2ccccc2)[C@@H]([N+](=O)[O-])[C@@H]1c1ccccc1)B(O)O [Example 4]
Solution: Yes

Problem: # check: EC50 < 4 µM for CC(C)C[C@H](NC(=O)[C@@H]1N[C@H](c2ccc3ccccc3c2)[C@@H]([N+](=O)[O-])[C@@H]1c1ccccc1)B(O)O [Example 12]
Solution: Yes

Problem: # check: EC50 < 4 µM for CC(C)C[C@H](NC(=O)[C@@H]1N[C@H](c2ccccc2)[C@@H]([N+](=O)[O-])[C@@H]1c1ccco1)B(O)O [Example 11]
Solution: Yes

Problem: # check: EC50 < 4 µM for CC(C)C[C@H](NC(=O)[C@@H]1CCCN1)B(O)O [MG-319, reference compound]
Solution: No

Problem: # check: EC50 < 4 µM for CC(C)C[C@H](NC(=O)[C@@H]1N[C@H](c2ccccc2)[C@@H]([N+](=O)[O-])[C@@H]1c1ccccc1)B(O)O [Example 1]
Solution: Yes

Problem: # check: EC50 < 4 µM for CC(C)C[C@H](NC(=O)[C@@H]1N[C@H](c2ccccc2)[C@@H]([N+](=O)[O-])[C@@H]1c1cccs1)B(O)O [Example 10]
Solution: Yes

Problem: # check: EC50 < 4 µM for CC(C)C[C@H](NC(=O)[C@@H]1N[C@H](c2ccccc2)[C@@H]([N+](=O)[O-])[C@@H]1c1ccc(F)cc1)B(O)O [Example 6]
Solution: No
